- System: Yellow fever virus
- Test Details: Antiviral activity against YFV infected in African green monkey Vero cells assessed as reduction in cytopathic effect by plaque reduction assay
- Assay type: functional, organism-based
Reported values of EC50 for individual entries
Property Name: EC50 (µM)

>>> df
                         structure_as_smiles  property_name  relational_operator  test_value
 0  OC[C@H]1O[C@@H](n2cnc3c(NCc4ccc(C#Cc5ccccc5)cc4)ncnc32)[C@H](O)[C@@H]1O           EC50                    =          33
 1  OC[C@H]1O[C@@H](n2cnc3c(NCc4ccccc4C(F)(F)F)ncnc32)[C@H](O)[C@@H]1O           EC50                    >          50
 2  OC[C@H]1O[C@@H](n2cnc3c(NCc4cccc(C(F)(F)F)c4)ncnc32)[C@H](O)[C@@H]1O           EC50                    >          50
 3  OC[C@H]1O[C@@H](n2cnc3c(NCc4ccc(-c5ccccc5)cc4)ncnc32)[C@H](O)[C@@H]1O           EC50                    >          50
 4  OC[C@H]1O[C@@H](n2cnc3c(NCc4ccc(-c5cccc(C(F)(F)F)c5)cc4)ncnc32)[C@H](O)[C@@H]1O           EC50                    =          31
 5  Nc1onc(C(=O)OCC23CC4CC(CC(C4)C2)C3)c1CCc1ccccc1           EC50                    =         2.2
 6  OC[C@H]1O[C@@H](n2cnc3c(NCc4ccc(C#Cc5cc(C(F)(F)F)cc(C(F)(F)F)c5)cc4)ncnc32)[C@H](O)[C@@H]1O           EC50                    =         5.6
 7  OC[C@H]1O[C@@H](n2cnc3c(NCc4ccc(C#CC5CCCC5)cc4)ncnc32)[C@H](O)[C@@H]1O           EC50                    =        17.8
 8  OC[C@H]1O[C@@H](n2cnc3c(NCc4ccc(C#CC5CC5)cc4)ncnc32)[C@H](O)[C@@H]1O           EC50                    >          50
 9  OC[C@H]1O[C@@H](n2cnc3c(NCc4cc(C(F)(F)F)cc(C(F)(F)F)c4)ncnc32)[C@H](O)[C@@H]1O           EC50                    >          50
10  OC[C@H]1O[C@@H](n2cnc3c(NCc4ccc(-c5ccc(C(F)(F)F)cc5)cc4)ncnc32)[C@H](O)[C@@H]1O           EC50                    =          27
11  OC[C@H]1O[C@@H](n2cnc3c(NCc4ccc(C#CC5=CCCCC5)cc4)ncnc32)[C@H](O)[C@@H]1O           EC50                    =          24
12  OC[C@H]1O[C@@H](n2cnc3c(NCc4ccc(C(F)(F)F)cc4)ncnc32)[C@H](O)[C@@H]1O           EC50                    >          50
13  OC[C@H]1O[C@@H](n2cnc3c(NCc4ccc(-c5ccccc5C(F)(F)F)cc4)ncnc32)[C@H](O)[C@@H]1O           EC50                    =          46
